From: patent US20250368745A1

- target.desc: T1, human IL-18BP (human, UniProt O95998 31-194)
- T1 construct: UniProt printed as 095998; also called hIL-18BP
- T1 sequence: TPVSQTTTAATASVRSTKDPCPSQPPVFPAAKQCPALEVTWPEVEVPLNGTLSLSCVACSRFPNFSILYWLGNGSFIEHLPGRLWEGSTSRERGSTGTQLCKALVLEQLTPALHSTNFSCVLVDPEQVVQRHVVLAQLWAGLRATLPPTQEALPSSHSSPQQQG
- assay.text: BLI, apparent KD
pKd: −log10 of the molar value.
Quick rule: pKd of at least 9 means MET, below that means NOT MET.

Past entries and their recorded results:
SA301a HC-N95Q (antibody, name in Kabat numbering, V domains shown, IgG1 kappa) VH: QVQLQESGPGLVKPSQTLSLTCTVSGYSITSDYNSHWIRQPPGKGLEWIGYIHYSGSTNYNPSLKSRVTISRDTSKNQFSLKLSSVTAADTAVYYCARQYGSIYVNYFDYWGQGTLVTVSS VL: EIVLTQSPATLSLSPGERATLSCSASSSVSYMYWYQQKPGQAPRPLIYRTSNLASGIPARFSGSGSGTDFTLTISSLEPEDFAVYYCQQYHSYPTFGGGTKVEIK    NOT MET
SA301a HC-Y96F (antibody, name in Kabat numbering, V domains shown, IgG1 kappa) VH: QVQLQESGPGLVKPSQTLSLTCTVSGYSITSDYNSHWIRQPPGKGLEWIGYIHYSGSTNYNPSLKSRVTISRDTSKNQFSLKLSSVTAADTAVYYCARNFGSIYVNYFDYWGQGTLVTVSS VL: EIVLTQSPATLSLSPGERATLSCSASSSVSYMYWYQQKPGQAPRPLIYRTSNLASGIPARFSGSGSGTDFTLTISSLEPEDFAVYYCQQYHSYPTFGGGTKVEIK    MET

Q) Decide: pKd of SA301a HC-Y96K (antibody, name in Kabat numbering, V domains shown, IgG1 kappa) VH: QVQLQESGPGLVKPSQTLSLTCTVSGYSITSDYNSHWIRQPPGKGLEWIGYIHYSGSTNYNPSLKSRVTISRDTSKNQFSLKLSSVTAADTAVYYCARNKGSIYVNYFDYWGQGTLVTVSS VL: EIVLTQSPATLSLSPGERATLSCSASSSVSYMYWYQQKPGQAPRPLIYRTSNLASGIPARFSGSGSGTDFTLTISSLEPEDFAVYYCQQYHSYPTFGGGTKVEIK >= 9?
A) NOT MET
